I'd appreciate it if you could supply TGI values for the items below.
# System: SF-295 CNS
# run-description: NCI tumour cell line growth inhibition, 48 h

Q: Answer with the recorded TGI for the molecule listed here: COC(=O)NCCc1[nH]nc2c1C(=O)C=C(N1CCOCC1)C2=O
A: > 100 µM

Q: Specify measured TGI for CC(NC(=O)C(C)NC(=O)C(N)CCP(C)(=O)O)C(=O)O (centres undefined) .
A: > 100 µM

Q: Report TGI, nothing else, for this molecule: Nc1ccc(C2=NN(c3ccccc3)C(c3ccc(Cl)cc3)C2)cc1 (centres undefined)
A: 24.9 µM

Q: State its TGI: C=C1C(=O)O[C@H]2[C@H]1CC/C(COC(=O)CSCCSCC(=O)OC/C1=C/CC[C@@]3(C)O[C@H]3[C@H]3OC(=O)C(=C)[C@@H]3CC1)=C\CC[C@@]1(C)O[C@@H]21
A: 5.76 µM

Q: Give the reported value of TGI for this record: Cc1cccc2c(=O)c([Se]c3coc4c(C)cccc4c3=O)coc12
A: 17.8 µM

Q: Provide only the value of recorded TGI for CC(C)=CC(=O)C/C(=N\NC(N)=S)C(=O)Nc1ccc(Cl)cc1
A: > 100 µM

Q: Please give measured TGI of the following entry: O=S(=O)(O)c1cc(O)c2c(N=Cc3ccccc3O)cc(S(=O)(=O)O)cc2c1
A: > 100 µM

Q: Output TGI of c1cc(N(CCn2cccn2)CCn2cccn2)cc(N(CCn2cccn2)CCn2cccn2)c1
A: > 100 µM

Q: // fetch TGI given entry O=CN1CCN(C(=O)c2ccc(Cl)cc2Cl)C1=S
A: > 100 µM
